Readings of IC50 for the listed molecules
# assay.target: Integrin alpha-IIb/beta-3 (Homo sapiens, UniProt P05106+P08514)
# Sequence (P05106 27-788 limits assumed): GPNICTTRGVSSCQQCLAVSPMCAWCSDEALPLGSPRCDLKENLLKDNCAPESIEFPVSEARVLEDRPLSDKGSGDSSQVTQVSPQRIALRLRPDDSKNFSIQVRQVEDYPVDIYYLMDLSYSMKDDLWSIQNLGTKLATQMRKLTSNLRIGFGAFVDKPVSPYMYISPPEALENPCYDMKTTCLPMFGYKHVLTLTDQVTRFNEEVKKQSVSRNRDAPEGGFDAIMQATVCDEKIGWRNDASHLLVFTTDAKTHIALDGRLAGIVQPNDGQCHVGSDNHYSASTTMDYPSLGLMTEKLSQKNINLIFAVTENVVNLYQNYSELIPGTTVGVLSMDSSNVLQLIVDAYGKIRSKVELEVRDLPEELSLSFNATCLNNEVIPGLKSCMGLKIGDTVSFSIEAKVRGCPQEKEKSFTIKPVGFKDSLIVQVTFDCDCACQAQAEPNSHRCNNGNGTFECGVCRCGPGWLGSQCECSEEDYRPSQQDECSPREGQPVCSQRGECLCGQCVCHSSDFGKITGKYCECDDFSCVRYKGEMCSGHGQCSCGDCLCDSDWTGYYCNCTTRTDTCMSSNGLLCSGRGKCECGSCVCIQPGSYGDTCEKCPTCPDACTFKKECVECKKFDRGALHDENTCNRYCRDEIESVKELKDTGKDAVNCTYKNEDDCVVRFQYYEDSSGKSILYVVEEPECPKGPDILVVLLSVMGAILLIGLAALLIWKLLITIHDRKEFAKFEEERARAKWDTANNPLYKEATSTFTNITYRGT
# Sequence (P08514 32-887 limits assumed): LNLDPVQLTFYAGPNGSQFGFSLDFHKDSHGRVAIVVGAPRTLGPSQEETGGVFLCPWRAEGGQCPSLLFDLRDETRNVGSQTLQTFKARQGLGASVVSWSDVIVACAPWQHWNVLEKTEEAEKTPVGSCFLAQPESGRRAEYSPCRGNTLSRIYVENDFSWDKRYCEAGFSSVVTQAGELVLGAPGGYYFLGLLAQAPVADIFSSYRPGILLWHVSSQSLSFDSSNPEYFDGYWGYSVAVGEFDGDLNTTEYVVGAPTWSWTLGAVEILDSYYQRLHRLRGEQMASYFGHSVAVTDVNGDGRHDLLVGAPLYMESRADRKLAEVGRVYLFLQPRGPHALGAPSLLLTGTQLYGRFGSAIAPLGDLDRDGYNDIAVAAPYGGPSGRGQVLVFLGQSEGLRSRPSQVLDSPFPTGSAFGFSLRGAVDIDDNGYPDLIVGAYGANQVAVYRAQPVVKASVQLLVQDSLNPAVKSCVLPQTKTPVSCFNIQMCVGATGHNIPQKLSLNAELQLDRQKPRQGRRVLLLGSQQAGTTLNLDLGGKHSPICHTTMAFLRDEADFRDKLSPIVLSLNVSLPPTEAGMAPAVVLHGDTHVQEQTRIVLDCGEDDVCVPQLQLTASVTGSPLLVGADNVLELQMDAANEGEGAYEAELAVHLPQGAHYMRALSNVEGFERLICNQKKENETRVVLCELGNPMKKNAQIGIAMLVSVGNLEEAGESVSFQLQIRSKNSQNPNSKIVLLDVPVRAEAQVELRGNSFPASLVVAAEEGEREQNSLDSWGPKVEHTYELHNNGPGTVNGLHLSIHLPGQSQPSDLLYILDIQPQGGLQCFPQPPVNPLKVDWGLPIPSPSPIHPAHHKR
# Sequence (P08514 891-1039 limits assumed): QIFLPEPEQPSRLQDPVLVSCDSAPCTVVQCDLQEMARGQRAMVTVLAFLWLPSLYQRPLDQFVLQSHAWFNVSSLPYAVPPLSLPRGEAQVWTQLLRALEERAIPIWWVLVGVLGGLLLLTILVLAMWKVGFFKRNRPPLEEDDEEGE
# assay.overview: Displacement of biotinylated fibrinogen from human alpha2b-beta3 receptor after 2 hrs by chemiluminescence assay
Give just the number in µM; leave the unit off.

Entry under review: CN1CC(C)(COc2ccc(C(=N)N)cc2)Oc2cc(N(CC(=O)O)Cc3cc(F)cc(F)c3)ccc21 (stereo not drawn) . Reported IC50?
45

###

# assay.target: Integrin alpha-IIb/beta-3 (Homo sapiens, UniProt P05106+P08514)
# assay.overview: Displacement of biotinylated fibrinogen from human alpha2b-beta3 receptor after 2 hrs by chemiluminescence assay
Readings of IC50 for the listed molecules
Give just the number in µM; leave the unit off.

Field: example entries. Status: answers known.
[
  {
    "molecule": "CN1CC(C)(COc2ccc(C(=N)N)cc2)Oc2cc(N(Cc3cccc(F)c3)C(=O)C(=O)O)ccc21 (centres undefined)",
    "IC50 (µM)": 33
  },
  {
    "molecule": "CN1CC(C)(COc2ccc(C(=N)N)cc2)Oc2ccc(N(CC(=O)O)Cc3ccc(F)c(F)c3)cc21 (centres undefined)",
    "IC50 (µM)": 1.1
  }
]

Enter reported IC50 observed with Integrin alpha-IIb/beta-3 (Homo sapiens, UniProt P05106+P08514) for CN1CC(C)(COc2ccc(C(=N)N)cc2)Oc2ccc(N(Cc3ccccc3)C(=O)C(=O)O)cc21 (centres undefined)
2.8
